Each entry below carries its recorded pIC50.
biological target: Ectonucleotide pyrophosphatase/phosphodiesterase family member 3 (Homo sapiens, UniProt O14638); test: Inhibition of recombinant human ENPP3 using p-Nph-5'-TMP as substrate by absorbance based analysis
Sequence (O14638 whole entry): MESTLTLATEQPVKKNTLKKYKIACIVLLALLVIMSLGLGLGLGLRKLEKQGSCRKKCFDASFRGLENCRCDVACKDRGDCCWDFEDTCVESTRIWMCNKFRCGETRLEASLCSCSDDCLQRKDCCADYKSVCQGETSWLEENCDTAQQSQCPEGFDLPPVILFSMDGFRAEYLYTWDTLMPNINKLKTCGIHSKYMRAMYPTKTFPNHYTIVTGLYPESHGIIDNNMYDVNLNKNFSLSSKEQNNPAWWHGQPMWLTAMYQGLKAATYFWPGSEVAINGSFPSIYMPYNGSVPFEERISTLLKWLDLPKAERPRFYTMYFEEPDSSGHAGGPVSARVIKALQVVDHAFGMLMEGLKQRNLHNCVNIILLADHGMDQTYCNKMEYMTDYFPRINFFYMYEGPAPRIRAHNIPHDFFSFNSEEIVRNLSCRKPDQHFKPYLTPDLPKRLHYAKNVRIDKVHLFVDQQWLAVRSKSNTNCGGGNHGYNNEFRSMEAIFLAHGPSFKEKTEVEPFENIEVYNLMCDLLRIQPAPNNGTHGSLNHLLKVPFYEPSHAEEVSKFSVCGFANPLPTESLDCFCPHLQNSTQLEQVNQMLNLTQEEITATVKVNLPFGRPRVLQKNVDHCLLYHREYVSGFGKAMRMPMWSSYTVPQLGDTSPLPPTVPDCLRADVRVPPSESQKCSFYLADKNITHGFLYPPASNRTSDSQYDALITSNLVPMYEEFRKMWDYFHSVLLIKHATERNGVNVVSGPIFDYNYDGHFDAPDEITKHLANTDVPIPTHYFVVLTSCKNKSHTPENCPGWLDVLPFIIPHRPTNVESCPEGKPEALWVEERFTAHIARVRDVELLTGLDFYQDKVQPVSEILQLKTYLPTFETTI
pIC50: −log10 of the molar value.

[
  {
    "Structure as smiles": "COc1ccc2c(-c3ccc(CNS(N)(=O)=O)cc3)ccnc2c1",
    "pIC50": 5.90
  },
  {
    "Structure as smiles": "COc1cccc(F)c1-c1nc(C(=O)Nc2cc(F)ccc2N2CCC(NS(N)(=O)=O)CC2)cn2ccnc12",
    "pIC50": 5.60
  }
]
